Target: Human MMP1 (Homo sapiens, UniProt P03956)
Construct: purchased Calbiochem 444208
Sequence (P03956 100-469): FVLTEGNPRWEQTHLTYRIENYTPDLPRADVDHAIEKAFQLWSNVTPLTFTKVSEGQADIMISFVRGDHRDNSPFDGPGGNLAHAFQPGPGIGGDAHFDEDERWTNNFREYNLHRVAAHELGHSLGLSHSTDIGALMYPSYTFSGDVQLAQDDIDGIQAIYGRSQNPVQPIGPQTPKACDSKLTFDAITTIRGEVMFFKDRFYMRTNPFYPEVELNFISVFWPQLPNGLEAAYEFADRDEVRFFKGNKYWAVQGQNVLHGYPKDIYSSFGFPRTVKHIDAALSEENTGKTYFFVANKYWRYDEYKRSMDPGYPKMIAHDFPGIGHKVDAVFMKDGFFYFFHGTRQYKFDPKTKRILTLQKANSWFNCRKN
Assay: MMP1 inhibition experiment
Assay type: biochemical
Settings: read-out: IC50 value MMP-1
Provide the recorded IC50 for the entries that follow.

// known answers, use as guide
COMPOUND | OUTCOME_MEASURE | VAL
Cc1cncc(C(CS(=O)(=O)c2ccc(OCc3cc(C)nc4c(F)cccc34)cc2)N(O)C=O)c1 (stereo not shown) | IC50 | > 100 µM
Cc1cc(COc2ccc(S(=O)(=O)CC(c3cccnc3C)N(O)C=O)cc2)c2ccccc2n1 (stereo not shown) | IC50 | > 100 µM
Cc1ccc(CCC(CS(=O)(=O)c2ccc(OCc3cc(C)nc4ccccc34)cc2)N(O)C=O)cc1 (stereo not shown) | IC50 | 70 µM

Now look at this one.
// IC50 value for CC(=O)N1CCC(CC(CS(=O)(=O)c2ccc(OCc3cc(C)nc4ccccc34)cc2)N(O)C=O)CC1 (stereo not shown) : > 100 µM
